test system: A549; test: NCI tumour cell line growth inhibition, 48 h
Activity calls are given as the source filed them. Cut-off read from the data, not from the text of the source: active = GI50 up to about 1.1 µM and inactive = higher.
Labels: active, inactive

>>> category_label("Cc1ccc2nc(NC(=O)C(=O)C(C(=O)c3ccc4ccccc4c3)C3OC(=O)c4ccccc43)sc2c1 (configuration not stated)")
"inactive"
>>> category_label("N#Cc1nc(C#N)c(N)[nH]1")
"inactive"
>>> category_label("Cc1ccc(NC(=O)C(=O)C2C(=O)C3=C(CC2(C)C)NC2C=CC=CC2S3)c(C)c1 (configuration not stated)")
"inactive"
>>> category_label("c1ccc(COc2nc3cc(C45CC6CC(CC(C6)C4)C5)ccc3[nH]2)cc1")
"inactive"
>>> category_label("CCC(=O)C(C)C(=O)C(=O)C(=O)OC (configuration not stated)")
"inactive"
>>> category_label("Clc1ccc(Cc2nc3ccccc3nc2-c2cccc(Cl)c2)cc1")
"inactive"
>>> category_label("CN1C(=O)c2ccccc2C(O)(c2ccccc2)C1(O)c1ccccc1 (configuration not stated)")
"inactive"
>>> category_label("N#Cc1ccc(-c2nc(C#N)c(N)o2)cc1")
"inactive"
>>> category_label("CC(=O)C1=C(C)N2C(=NC3=C(CCc4ccccc43)C2c2ccc(Cl)cc2)S1 (configuration not stated)")
"inactive"
>>> category_label("COc1ccccc1-c1cc(=O)c2ccc(OC)c(OC)c2o1")
"inactive"
>>> category_label("CC1=NN(C(=O)Cc2ccccc2)C(=O)/C1=C\\c1ccccc1O")
"inactive"
>>> category_label("CC(=O)C1=C(C)N(c2ccccc2)C2(O)C3=C(C(=O)c4ccccc4C3=O)C(O)=CC12Cl (configuration not stated)")
"inactive"
>>> category_label("N/N=C1\\C(=O)N(c2ccc(Cl)cc2Cl)C(=O)C(=O)C1c1nc2ccccc2o1 (configuration not stated)")
"inactive"
>>> category_label("CCC(c1ccccc1)c1cc(C(C)(C)C)cc(C(C)(C)C)c1O (configuration not stated)")
"inactive"
>>> category_label("CC(=O)OCCC1c2ccccc2-n2nc(-c3ccccc3)c(O)c21 (configuration not stated)")
"inactive"
>>> category_label("Nc1ccc(Sc2nnc(N)s2)cc1")
"inactive"
>>> category_label("COC1CC(C)(NC(C)=O)C2OC(c3ccccc3)OCC2O1 (configuration not stated)")
"inactive"
>>> category_label("CCOC1(OCC)C2C=CC1C(COS(=O)(=O)c1ccc(C)cc1)C2COS(=O)(=O)c1ccc(C)cc1 (configuration not stated)")
"inactive"
>>> category_label("CC(C)(C)C1CCC2c3c([nH]c4ccccc34)C3C(=O)N(c4cccc([N+](=O)[O-])c4)C(=O)C3C2C1 (configuration not stated)")
"inactive"
>>> category_label("CC1=C(N2CC2)C(=O)C(C)=C(N2CC2)C1=O")
"active"
>>> category_label("CSc1c(C#N)c(=O)n(N)c2c1c(C)nn2-c1ccccc1")
"inactive"
>>> category_label("CC1OC(n2cnc3c(N)nc(Cl)nc32)C(C)(O)C1O (configuration not stated)")
"inactive"
>>> category_label("CC(=O)OC1(C)CC(C)C(=O)C(C(O)CC2CC(=O)NC(=O)C2)C1 (configuration not stated)")
"active"
>>> category_label("CNc1ccc2c(c1)Cc1ccccc1-2")
"inactive"
>>> category_label("Cc1cccc(NC(=O)CCl)c1")
"inactive"
>>> category_label("CC(=O)OC/C=C(/C=C/CNC1CCCCC1)OC(C)=O")
"inactive"
>>> category_label("O=Cc1ccc2c(c1)CC1(C2)Cc2ccc3c(c2C1)CCC3 (configuration not stated)")
"inactive"
>>> category_label("CCOC(=O)CNC1=Nc2ccccc2C(=O)N2CSCC12 (configuration not stated)")
"inactive"
>>> category_label("C/C(=C\\c1csc(C)n1)[C@@H]1C[C@@H]2O[C@@H]2CCC[C@H](C)[C@H](O)[C@@H](C)C(=O)C(C)(C)[C@@H](O)CC(=O)O1.C/C(=C\\c1csc(C)n1)[C@@H]1C[C@@H]2O[C@]2(C)CCC[C@H](C)[C@H](O)[C@@H](C)C(=O)C(C)(C)[C@@H](O)CC(=O)O1")
"active"
>>> category_label("Clc1cccc(C2SCc3nc4ccccc4n32)c1 (configuration not stated)")
"inactive"
>>> category_label("Clc1ccc(/C=C/c2nc(Cl)c(-c3ccc(Cl)cc3)c(Cl)n2)cc1")
"inactive"
>>> category_label("CC(=O)CC(O)(C(F)(F)Cl)C(F)(F)Cl")
"inactive"
>>> category_label("O=C(C(=O)N1CC2C=CC1CC2)c1c[nH]c2ccccc12 (configuration not stated)")
"inactive"
>>> category_label("COc1cc(/C=N/N=C2NCCCCN2)ccc1O")
"inactive"
>>> category_label("CC1(C)N=C(N)N=C(N)N1c1ccc(OCC(=O)Nc2cccc(S(=O)(=O)F)c2)c(Cl)c1")
"inactive"
>>> category_label("CC(C)(CCCCC(C)(C)NCC1COc2ccccc2O1)NCC1COc2ccccc2O1 (configuration not stated)")
"inactive"
>>> category_label("O=C1NC(c2ccc(O)cc2)C2CCC1C2 (configuration not stated)")
"inactive"
>>> category_label("O=S1(=O)OCCOS(=O)(=O)C1Cc1ccccc1")
"inactive"
>>> category_label("CC(C)(C)OC(=O)c1ccc(NCC2=CC(=O)C=CC2=O)cc1")
"inactive"
>>> category_label("COC(=O)C1=C(C)NC(C)=C(C(=O)OCCCN2CCC(c3ccccc3)(c3ccccc3)CC2)[C@H]1c1cccc([N+](=O)[O-])c1")
"inactive"
>>> category_label("COC(=O)[C@@]12CSC[C@]1(C(=O)OC)N[C@@H](c1ccccc1O)C2")
"inactive"
>>> category_label("CC(=O)N(C(=O)CC(=O)N/N=C\\c1ccc(Br)c(N(CCC#N)CCC#N)c1)c1ccc(Cl)cc1")
"inactive"
